Target under test: Serine/threonine-protein kinase mTOR (Homo sapiens) (UniProt P42345)
Method notes: Inhibition of FRAP1 (unknown origin) at 50 nM by Z'LYTE screening method relative to control
The following compounds are shown together with reported inhibition values.
A number alone suffices; assume %.

Take a look at these entries with their results.
O=c1c2ccccc2[se]n1-c1nc(N[C@@H]2C[C@H]3CC[C@@H]2C3)c2nc[nH]c2n1 ... 0
O=c1c2ccccc2[se]n1-c1nc(N[C@H]2CCOC2)c2nc[nH]c2n1 ... 1
O=C1c2ccccc2CN1c1nc(N[C@H]2CC[Se]C2)c2nc[nH]c2n1 ... 2
O=c1c2ccccc2[se]n1-c1nc(NC2CCCCC2)c2nc[nH]c2n1 ... 0
O=c1c2ccccc2[se]n1-c1nc(Nc2ccccc2)c2nc[nH]c2n1 ... 0

Ask: Identify measured inhibition corresponding to CCCNc1nc(-n2[se]c3ccccc3c2=O)nc2[nH]cnc12
Reply: 0

Origin of values: ChEMBL document CHEMBL5154740
